target: Insulin-like growth factor 2 mRNA-binding protein 1 (Homo sapiens, UniProt Q9NZI8); experiment: Inhibition of full length recombinant IGF2BP1 (unknown origin) by fluorescence polarization assay
Sequence (Q9NZI8 whole entry): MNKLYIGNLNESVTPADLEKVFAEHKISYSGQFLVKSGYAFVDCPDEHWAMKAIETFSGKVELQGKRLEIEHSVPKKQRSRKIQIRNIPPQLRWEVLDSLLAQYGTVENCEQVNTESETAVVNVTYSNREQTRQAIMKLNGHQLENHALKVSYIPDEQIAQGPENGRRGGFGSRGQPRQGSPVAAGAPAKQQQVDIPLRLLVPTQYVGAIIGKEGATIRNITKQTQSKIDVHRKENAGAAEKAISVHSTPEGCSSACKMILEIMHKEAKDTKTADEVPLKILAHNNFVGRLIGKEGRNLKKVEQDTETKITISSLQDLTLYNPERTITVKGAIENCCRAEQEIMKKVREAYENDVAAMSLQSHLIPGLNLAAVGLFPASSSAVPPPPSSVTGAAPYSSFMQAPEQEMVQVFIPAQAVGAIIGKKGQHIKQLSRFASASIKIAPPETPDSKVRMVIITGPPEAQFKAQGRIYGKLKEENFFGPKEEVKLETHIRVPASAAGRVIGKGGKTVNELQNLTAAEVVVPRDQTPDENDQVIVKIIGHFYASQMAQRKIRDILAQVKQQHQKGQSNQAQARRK

Compound	IC50 (µM)
O=C(c1ccc(-n2cnnn2)cc1)N1CCCC(Nc2ccc3c(c2)OCO3)C1 (stereo unspecified)	91.1

---

target: Insulin-like growth factor 2 mRNA-binding protein 1 (Homo sapiens, UniProt Q9NZI8); assay: Binding affinity to IGF2BP1 (unknown origin) assessed as dissociation constant by MST assay
pKd: −log10 of the molar value.
Observable: pKd

1) O=C(c1ccc(Cn2cc(CO)c3ccccc32)cc1)N1CCN(c2ccc3c(c2)OCO3)CC1 5.85
